Target: T1, HLA-A*0201 molecule on human T2 cells (human)
T1 construct: read out with anti-HLA-A2 antibody BB7.2-PE; also called HLA-A2
Assay: T2 cells expressing HLA-A*0201, anti-HLA-A2-PE, FACS
Quick reference: mean relative fluorescence intensity at 50 µM peptide of the listed items.

Retrieve mean relative fluorescence intensity at 50 µM peptide measured for SMEELLWFV [TYMS-B] and print it. 65.7 % of HIV peptide

Retrieve mean relative fluorescence intensity at 50 µM peptide measured for FLPFGFILV [IL13RA2-B] and print it. 113 % of HIV peptide

Retrieve mean relative fluorescence intensity at 50 µM peptide measured for RVSSYLVPI (Fragment of human FOXM1) [FOXM1-H] and print it. 30.7 % of HIV peptide

Retrieve mean relative fluorescence intensity at 50 µM peptide measured for FMLGEFLKL [BIRC5-B1] and print it. 77.1 % of HIV peptide

Retrieve mean relative fluorescence intensity at 50 µM peptide measured for YTLGEFLYI [BIRC5-B2] and print it. 54.4 % of HIV peptide

Retrieve mean relative fluorescence intensity at 50 µM peptide measured for LMDLSTTEV [FOXM1-B2] and print it. 91.5 % of HIV peptide

Retrieve mean relative fluorescence intensity at 50 µM peptide measured for ILDEAYVRV [EGFR-B] and print it. 66.7 % of HIV peptide

We now examine a further binder.
Retrieve mean relative fluorescence intensity at 50 µM peptide measured for FLDSLGFST [TYMS-H2] and print it. 37.2 % of HIV peptide
